Tested on: BGM cells
PROCEDURE_SUMMARY: MTT cytotoxicity assay, BGM cells, 48 h
Assay type: cell-based, green monkey
CONDITION_LABEL: Chlorocebus sabaeus, BGM, 48 h, read-out: IC50 (μM) BGM
METRIC: IC50

Reported IC50 ( N#Cc1ccncc1 ) = > 250 µM
